Listed here: items and their measured inhibition.
# TARGET: α1G T-type calcium channel (Homo sapiens)
# Sequence (O43497 whole entry): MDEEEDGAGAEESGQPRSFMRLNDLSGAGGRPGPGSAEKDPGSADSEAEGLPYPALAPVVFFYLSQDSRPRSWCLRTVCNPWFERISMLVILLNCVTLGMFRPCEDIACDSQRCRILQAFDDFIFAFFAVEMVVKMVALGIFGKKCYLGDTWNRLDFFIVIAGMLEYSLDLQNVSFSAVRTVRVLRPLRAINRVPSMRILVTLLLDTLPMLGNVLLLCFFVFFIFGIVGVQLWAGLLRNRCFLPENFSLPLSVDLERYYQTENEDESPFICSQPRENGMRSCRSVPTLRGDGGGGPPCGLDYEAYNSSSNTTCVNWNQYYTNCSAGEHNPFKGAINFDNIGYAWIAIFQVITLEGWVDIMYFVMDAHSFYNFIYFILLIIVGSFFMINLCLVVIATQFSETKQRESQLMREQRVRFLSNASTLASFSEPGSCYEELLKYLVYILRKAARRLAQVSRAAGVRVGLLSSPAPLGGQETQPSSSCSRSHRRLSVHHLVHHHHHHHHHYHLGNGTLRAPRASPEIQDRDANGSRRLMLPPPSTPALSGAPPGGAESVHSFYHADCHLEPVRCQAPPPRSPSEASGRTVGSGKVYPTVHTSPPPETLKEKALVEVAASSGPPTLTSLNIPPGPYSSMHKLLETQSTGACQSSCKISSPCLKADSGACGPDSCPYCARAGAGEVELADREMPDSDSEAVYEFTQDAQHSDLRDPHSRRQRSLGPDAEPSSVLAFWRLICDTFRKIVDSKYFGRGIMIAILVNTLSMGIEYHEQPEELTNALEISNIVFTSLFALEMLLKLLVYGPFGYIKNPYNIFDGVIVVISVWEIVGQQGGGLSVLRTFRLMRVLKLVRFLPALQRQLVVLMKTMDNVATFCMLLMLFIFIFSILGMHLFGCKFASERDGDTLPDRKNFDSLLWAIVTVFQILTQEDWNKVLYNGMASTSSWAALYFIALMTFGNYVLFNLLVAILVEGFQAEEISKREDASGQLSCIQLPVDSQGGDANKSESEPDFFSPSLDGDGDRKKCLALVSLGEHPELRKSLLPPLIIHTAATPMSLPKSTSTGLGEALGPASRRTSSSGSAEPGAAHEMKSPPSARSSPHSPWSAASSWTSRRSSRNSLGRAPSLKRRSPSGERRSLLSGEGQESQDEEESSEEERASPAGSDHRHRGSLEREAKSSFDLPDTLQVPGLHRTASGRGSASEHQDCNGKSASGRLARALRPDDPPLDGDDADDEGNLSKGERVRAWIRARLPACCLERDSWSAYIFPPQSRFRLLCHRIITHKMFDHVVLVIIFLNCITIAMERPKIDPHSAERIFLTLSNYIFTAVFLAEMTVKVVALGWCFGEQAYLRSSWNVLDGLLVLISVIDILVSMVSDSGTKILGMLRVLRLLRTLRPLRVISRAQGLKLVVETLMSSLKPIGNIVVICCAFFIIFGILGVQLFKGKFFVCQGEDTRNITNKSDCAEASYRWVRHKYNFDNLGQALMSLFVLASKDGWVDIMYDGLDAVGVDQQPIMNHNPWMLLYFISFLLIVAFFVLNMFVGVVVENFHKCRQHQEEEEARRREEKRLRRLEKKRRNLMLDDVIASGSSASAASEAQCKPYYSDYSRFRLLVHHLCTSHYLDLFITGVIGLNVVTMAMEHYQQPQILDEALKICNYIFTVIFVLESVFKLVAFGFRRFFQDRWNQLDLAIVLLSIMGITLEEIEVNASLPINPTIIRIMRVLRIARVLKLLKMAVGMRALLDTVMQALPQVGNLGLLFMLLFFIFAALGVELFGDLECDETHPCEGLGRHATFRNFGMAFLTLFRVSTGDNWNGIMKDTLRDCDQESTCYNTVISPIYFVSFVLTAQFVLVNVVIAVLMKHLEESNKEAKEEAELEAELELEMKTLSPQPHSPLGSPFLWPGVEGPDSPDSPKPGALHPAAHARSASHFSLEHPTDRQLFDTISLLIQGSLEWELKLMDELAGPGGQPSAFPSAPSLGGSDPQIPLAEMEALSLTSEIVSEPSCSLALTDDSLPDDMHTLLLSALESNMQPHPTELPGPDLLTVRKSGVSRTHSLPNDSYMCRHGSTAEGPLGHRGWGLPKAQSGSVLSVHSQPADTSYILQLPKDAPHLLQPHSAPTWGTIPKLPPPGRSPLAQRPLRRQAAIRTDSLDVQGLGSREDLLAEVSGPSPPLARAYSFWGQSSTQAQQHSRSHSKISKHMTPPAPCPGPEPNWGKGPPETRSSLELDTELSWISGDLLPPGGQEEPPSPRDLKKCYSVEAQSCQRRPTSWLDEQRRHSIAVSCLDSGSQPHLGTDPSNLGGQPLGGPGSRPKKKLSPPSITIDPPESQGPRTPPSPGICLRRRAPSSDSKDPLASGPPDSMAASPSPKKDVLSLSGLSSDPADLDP
# METHOD_NOTES: Assay for T-type calcium channel inhibition activity (FDSS6000 calcium imaging, KCl activation)
# Type: cell-based
# MEASUREMENT_SETUP: 75 s pre-treatment then KCl 75 mM, HEK293 cells expressing α1G T-type calcium channel and Kir2.1

COMPOUND: O[C@@H](COc1ccc(F)cc1)CN1CCN(Cc2nccn2Cc2ccccc2)CC1 [KKRE10155]
TARGET: α1G T-type calcium channel (Homo sapiens)
inhibition / %: 33.7
//
COMPOUND: CC(C)Cc1cc(CNC(=O)CN2CCN(C[C@@H](O)COc3ccc(C(F)(F)F)cc3)CC2)nn1-c1ccc(F)cc1 [KKRE10217]
TARGET: α1G T-type calcium channel (Homo sapiens)
inhibition / %: 75.7
//
COMPOUND: Cc1ccc(OC[C@@H](O)CN2CCN(CC(=O)NCc3ccccc3)CC2)cc1 [KKRE10197]
TARGET: α1G T-type calcium channel (Homo sapiens)
inhibition / %: 27.1
//
COMPOUND: Cc1ccc(F)cc1-n1nc(CNC(=O)CN2CCN(C[C@@H](O)COc3ccc(C(F)(F)F)cc3)CC2)cc1CC(C)C [KKRE10216]
TARGET: α1G T-type calcium channel (Homo sapiens)
inhibition / %: 77.4
//
COMPOUND: CC(C)Cc1cc(CNC(=O)CN2CCN(C[C@H](O)COc3ccc(C(F)(F)F)cc3)CC2)nn1-c1ccccc1 [KKRE10215]
TARGET: α1G T-type calcium channel (Homo sapiens)
inhibition / %: 80.9
//
COMPOUND: Cc1ccc(F)cc1-n1nc(CNC(=O)CN2CCN(C[C@H](O)COc3ccc(C(F)(F)F)cc3)CC2)cc1CC(C)C [KKRE10221]
TARGET: α1G T-type calcium channel (Homo sapiens)
inhibition / %: 68.9
//
COMPOUND: Cc1ccc(OC[C@H](O)CN2CCN(CC(=O)NCc3ccc(C(F)(F)F)cc3)CC2)cc1 [KKRE10200]
TARGET: α1G T-type calcium channel (Homo sapiens)
inhibition / %: 43.7

Taken from patent US9458120B2.
